# target_of_assay: CDK13 (Homo sapiens)
# Sequence (Q14004 whole entry, species assumed): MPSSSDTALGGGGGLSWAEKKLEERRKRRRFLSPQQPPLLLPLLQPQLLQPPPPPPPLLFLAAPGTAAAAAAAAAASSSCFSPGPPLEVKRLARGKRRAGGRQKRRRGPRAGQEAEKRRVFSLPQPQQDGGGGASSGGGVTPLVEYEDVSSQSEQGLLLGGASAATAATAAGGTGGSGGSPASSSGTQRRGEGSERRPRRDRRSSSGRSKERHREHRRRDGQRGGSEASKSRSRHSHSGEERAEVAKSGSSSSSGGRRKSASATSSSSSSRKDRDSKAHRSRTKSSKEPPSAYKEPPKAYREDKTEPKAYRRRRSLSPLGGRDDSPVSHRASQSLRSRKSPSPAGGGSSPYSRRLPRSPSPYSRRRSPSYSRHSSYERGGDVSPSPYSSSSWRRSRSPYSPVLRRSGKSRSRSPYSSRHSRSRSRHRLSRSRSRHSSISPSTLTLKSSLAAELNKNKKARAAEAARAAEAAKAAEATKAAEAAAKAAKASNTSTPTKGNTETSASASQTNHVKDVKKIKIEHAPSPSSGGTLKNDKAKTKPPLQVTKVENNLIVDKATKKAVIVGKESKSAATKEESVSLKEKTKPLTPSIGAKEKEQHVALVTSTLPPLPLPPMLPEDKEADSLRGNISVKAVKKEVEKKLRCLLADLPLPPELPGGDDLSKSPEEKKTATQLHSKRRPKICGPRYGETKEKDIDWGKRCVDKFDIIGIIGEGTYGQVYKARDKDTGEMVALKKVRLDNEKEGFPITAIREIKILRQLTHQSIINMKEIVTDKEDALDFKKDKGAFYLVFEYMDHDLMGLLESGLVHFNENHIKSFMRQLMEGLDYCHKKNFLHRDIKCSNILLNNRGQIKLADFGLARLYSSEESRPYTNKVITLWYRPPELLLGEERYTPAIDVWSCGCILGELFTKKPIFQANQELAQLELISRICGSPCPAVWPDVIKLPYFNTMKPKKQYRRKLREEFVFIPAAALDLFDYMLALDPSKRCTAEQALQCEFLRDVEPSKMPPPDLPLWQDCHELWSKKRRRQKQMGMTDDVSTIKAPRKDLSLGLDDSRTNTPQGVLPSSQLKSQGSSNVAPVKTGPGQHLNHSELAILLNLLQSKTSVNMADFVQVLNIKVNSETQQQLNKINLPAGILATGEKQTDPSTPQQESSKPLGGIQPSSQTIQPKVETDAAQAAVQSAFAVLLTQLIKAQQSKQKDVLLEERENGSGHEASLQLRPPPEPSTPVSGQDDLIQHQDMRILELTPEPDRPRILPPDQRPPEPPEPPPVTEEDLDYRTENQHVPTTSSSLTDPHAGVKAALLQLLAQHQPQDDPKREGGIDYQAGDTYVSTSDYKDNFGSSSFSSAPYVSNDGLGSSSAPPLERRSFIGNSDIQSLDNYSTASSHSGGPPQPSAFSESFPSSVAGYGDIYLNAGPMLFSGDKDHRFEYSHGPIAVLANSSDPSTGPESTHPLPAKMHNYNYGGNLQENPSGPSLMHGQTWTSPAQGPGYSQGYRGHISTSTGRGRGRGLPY
# Sequence (O75909 whole entry partner, species assumed): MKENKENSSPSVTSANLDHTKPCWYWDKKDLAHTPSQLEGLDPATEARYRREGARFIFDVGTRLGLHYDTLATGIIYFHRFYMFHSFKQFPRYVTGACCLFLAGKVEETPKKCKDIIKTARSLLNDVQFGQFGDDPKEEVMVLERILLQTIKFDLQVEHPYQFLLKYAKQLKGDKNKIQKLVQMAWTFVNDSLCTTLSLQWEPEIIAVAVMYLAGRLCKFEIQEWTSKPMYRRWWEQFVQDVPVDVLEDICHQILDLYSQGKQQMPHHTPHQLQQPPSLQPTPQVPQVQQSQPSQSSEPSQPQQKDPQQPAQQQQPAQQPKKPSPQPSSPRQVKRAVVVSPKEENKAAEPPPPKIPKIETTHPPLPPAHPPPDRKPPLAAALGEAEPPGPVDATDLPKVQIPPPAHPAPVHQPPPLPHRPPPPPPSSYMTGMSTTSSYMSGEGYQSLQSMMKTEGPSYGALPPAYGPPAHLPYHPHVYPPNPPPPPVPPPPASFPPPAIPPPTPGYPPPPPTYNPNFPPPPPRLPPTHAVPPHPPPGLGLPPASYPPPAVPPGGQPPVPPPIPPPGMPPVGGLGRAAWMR
# protocol_description: CDK13 kinase inhibitory activity assay (33P-ATP filter binding)
# Type: biochemical
# assay_setup: kinase reaction 120 minutes, 33P-gamma-ATP; read-out: CDK13 IC50
attribute_measured: IC50

structure_smiles_string	IC50
FC(F)(F)c1cnc2c(NCc3nc4cc(Cl)c(Cl)cc4o3)cc(N3CCOCC3)nn12	> 500 nM

# input Query the reported IC50 for CDK13 (Homo sapiens); item: CN1CCN(c2cc(NCc3nc4cc(F)c(F)cc4[nH]3)c3ncc(C(F)(F)F)n3n2)CC1
# output < 100 nM

# input Query the reported IC50 for CDK13 (Homo sapiens); item: CN1CC2CC(C1)N2c1cc(NCc2nc3cc(Cl)c(Cl)cc3[nH]2)c2ncc(C(F)(F)F)n2n1
# output < 100 nM

# input Query the reported IC50 for CDK13 (Homo sapiens); item: FC(F)(F)c1cnc2c(NCc3nc4cc(Cl)c(Cl)cc4[nH]3)cc(N3CC4CC(C3)O4)nn12
# output 100 to 500 nM

----------
The compounds listed here are annotated with their pIC50.
# Test system: MDA-MB-231 breast cancer cells
# protocol_description: Proliferation inhibitory activity assay against MDA-MB-231 breast cancer cells
# Type: cell-based
# assay_setup: Homo sapiens, 72 hours, CellTiter Glo, relative IC50
pIC50: −log10 of the molar value.

compound	attribute_measured	endpoint_value
Fc1ccc2nc(CNc3cc(N4CCOCC4)nn4c(C5CC5)cnc34)[nH]c2c1F	pIC50	6.30 to 7.30
CCc1cnc2c(NCc3nc4ccc(F)c(F)c4[nH]3)cc(N3CCOCC3)nn12	pIC50	6.30 to 7.30
Fc1cc2nc(CNc3cc(N4CCNCC4)nn4c(C(F)(F)F)cnc34)[nH]c2cc1F	pIC50	≥ 7.30
FC(F)(F)c1cnc2c(NCc3cc4cccnc4[nH]3)cc(N3CCOCC3)nn12	pIC50	6.30 to 7.30
FC(F)(F)c1cnc2c(NCc3nc4cc(Cl)c(Cl)cc4[nH]3)cc(N3CC4CCC3CO4)nn12 (centres unmarked)	pIC50	6.30 to 7.30
Cc1cc(C)n2cc(CNc3cc(N4CCOCC4)nn4c(C(F)(F)F)cnc34)nc2n1	pIC50	6.30 to 7.30

# input Can you share its pIC50? I mean this compound: N#CC1CCN(c2cc(NCc3nc4cc(Cl)c(Cl)cc4[nH]3)c3ncc(C(F)(F)F)n3n2)C1 (centres unmarked)
# output ≥ 7.30

# input Can you share its pIC50? I mean this compound: CC(C)(O)C1CN(c2cc(NCc3nc4cc(Cl)c(Cl)cc4[nH]3)c3ncc(C(F)(F)F)n3n2)C1
# output 6.30 to 7.30

----------
# target_of_assay: CDK12 (Homo sapiens, UniProt Q9NYV4)
# Sequence (Q9NYV4 whole entry, species assumed): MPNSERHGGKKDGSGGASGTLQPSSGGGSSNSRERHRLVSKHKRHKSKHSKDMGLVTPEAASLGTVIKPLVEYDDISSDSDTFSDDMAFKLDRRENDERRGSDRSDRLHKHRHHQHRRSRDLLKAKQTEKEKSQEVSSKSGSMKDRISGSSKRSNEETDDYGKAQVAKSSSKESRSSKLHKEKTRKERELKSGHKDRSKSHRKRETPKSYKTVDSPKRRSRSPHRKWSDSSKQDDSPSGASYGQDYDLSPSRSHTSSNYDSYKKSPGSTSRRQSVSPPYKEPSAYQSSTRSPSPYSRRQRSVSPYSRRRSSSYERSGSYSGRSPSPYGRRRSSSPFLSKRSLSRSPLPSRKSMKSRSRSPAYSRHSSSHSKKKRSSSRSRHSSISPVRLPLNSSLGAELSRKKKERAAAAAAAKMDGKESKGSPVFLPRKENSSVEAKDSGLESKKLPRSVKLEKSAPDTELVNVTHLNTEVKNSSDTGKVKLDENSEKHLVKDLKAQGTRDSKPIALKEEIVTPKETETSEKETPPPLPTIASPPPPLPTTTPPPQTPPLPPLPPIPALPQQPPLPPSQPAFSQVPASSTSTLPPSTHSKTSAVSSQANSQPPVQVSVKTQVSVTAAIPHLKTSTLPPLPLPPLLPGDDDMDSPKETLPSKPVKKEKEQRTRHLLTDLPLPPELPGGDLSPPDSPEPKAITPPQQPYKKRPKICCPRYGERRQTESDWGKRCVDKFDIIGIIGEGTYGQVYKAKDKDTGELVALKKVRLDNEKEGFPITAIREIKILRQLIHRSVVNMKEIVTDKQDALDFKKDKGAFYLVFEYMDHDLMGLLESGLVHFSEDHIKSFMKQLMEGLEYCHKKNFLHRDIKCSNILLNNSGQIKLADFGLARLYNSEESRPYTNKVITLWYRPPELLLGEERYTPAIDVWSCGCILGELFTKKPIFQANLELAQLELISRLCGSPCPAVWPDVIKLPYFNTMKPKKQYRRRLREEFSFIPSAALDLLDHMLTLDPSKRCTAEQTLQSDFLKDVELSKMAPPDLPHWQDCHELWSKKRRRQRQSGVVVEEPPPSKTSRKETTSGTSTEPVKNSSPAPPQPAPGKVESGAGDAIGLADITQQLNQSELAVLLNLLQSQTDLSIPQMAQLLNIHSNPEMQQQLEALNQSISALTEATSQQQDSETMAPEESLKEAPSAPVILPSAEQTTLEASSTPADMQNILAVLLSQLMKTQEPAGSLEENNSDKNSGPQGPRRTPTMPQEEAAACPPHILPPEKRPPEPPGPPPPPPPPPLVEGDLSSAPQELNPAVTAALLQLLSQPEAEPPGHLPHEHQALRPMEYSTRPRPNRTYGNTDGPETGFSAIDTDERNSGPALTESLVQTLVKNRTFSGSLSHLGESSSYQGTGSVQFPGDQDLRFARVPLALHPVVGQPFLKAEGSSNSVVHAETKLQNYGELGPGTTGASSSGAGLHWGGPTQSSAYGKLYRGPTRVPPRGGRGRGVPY
# Sequence (O75909 whole entry partner, species assumed): as the sequence (O75909 whole entry partner, species assumed) above
# protocol_description: CDK12 kinase inhibitory activity assay (33P-ATP filter binding)
# Assay type: biochemical
# assay_setup: kinase reaction 120 minutes, 33P-gamma-ATP; read-out: CDK12 IC50
attribute_measured: IC50

Check out these entries, answers already filled in.
compound	target_of_assay	IC50
Fc1cc2nc(CNc3cc(N4CCOCC4)nn4c(C(F)(F)F)cnc34)[nH]c2cc1F [Example 70]	CDK12 (Homo sapiens, UniProt Q9NYV4)	< 100 nM
FC(F)(F)c1cnc2c(NCc3cn4ncccc4n3)cc(N3CCOCC3)nn12 [Example 85]	CDK12 (Homo sapiens, UniProt Q9NYV4)	< 100 nM
FC(F)(F)c1cnc2c(NCc3cc4ncccn4n3)cc(N3CCOCC3)nn12 [Example 89]	CDK12 (Homo sapiens, UniProt Q9NYV4)	< 100 nM

Field: next compound
# input Can you share its IC50? I mean this compound: CN1CC2CCC(C1)N2c1cc(NCc2nc3ccc(F)c(F)c3[nH]2)c2ncc(C(F)(F)F)n2n1 [Example 13]
# output < 100 nM
